Source listed as patent US20110009362A1.

ASSAY NOTES: Saturation solubility of aprepitant forms in water and aqueous HPβCD solutions
Type: physicochemical
MEASUREMENT CONDITIONS: water, thermodynamic from solid, 1A: pH 7.0
MEASURED ATTRIBUTE: solubility (µg/mL)
Numbers only; they are read as µg/mL.

Consider the molecule C[C@@H](O[C@H]1OCCN(Cc2n[nH]c(=O)[nH]2)[C@H]1c1ccc(F)cc1)c1cc(C(F)(F)F)cc(C(F)(F)F)c1 [Crystalline aprepitant Form I] and give its recorded solubility.
0.5
